Each recorded value in this set is attributed to ChEMBL document CHEMBL1130155.

Target: Serine protease 1 (Bos taurus)
Sequence (P00760 whole entry): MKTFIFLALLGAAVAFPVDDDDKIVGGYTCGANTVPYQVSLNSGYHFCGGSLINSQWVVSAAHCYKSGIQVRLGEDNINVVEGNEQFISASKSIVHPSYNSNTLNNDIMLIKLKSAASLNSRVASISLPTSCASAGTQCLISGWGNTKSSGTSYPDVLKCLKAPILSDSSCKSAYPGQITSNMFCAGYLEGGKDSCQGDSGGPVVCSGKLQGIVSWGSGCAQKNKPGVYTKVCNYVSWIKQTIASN
Please note: Ki exactly at 600 nM is N. Only values below 600 nM get Y.

Hello, I'm reviewing records and need to know if Ki of COc1cc(C)c(S(=O)(=O)NC(Cc2cccc(C(=N)N)c2)C(=O)N2CCN(S(C)(=O)=O)CC2)c(C)c1C (stereo unspecified) is below 600 nM. Could you check? N

Hello, I'm reviewing records and need to know if Ki of CCCS(=O)(=O)N1CCN(C(=O)C(Cc2cccc(C(=N)N)c2)NS(=O)(=O)c2ccc3ccccc3c2)CC1 (stereo unspecified) is below 600 nM. Could you check? Y

Hello, I'm reviewing records and need to know if Ki of N=C(N)c1cccc(C[C@@H](NS(=O)(=O)c2ccc3ccccc3c2)C(=O)N2CCN(C=O)CC2)c1 is below 600 nM. Could you check? Y

Hello, I'm reviewing records and need to know if Ki of N=C(N)c1cccc(CC(NS(=O)(=O)c2ccc3ccccc3c2)C(=O)N2CCN(C(=O)c3ccc4ccccc4c3)CC2)c1 (stereo unspecified) is below 600 nM. Could you check? Y

Hello, I'm reviewing records and need to know if Ki of CC(=O)N1CCN(C(=O)C(Cc2cccc(C(=N)N)c2)NS(=O)(=O)c2ccc3ccccc3c2)CC1 (stereo unspecified) is below 600 nM. Could you check? Y

Hello, I'm reviewing records and need to know if Ki of N=C(N)c1cccc(CC(NS(=O)(=O)c2ccc3ccccc3c2)C(=O)N2CCN(S(=O)(=O)c3ccccc3)CC2)c1 (stereo unspecified) is below 600 nM. Could you check? Y

Hello, I'm reviewing records and need to know if Ki of CC1(C)C2CCC1(CCS(=O)(=O)NC(Cc1cccc(C(=N)N)c1)C(=O)N1CCN(S(C)(=O)=O)CC1)C(=O)C2 (stereo in doubt; 28) is below 600 nM. Could you check? Y

Hello, I'm reviewing records and need to know if Ki of Cc1c(C)c(S(=O)(=O)NC(Cc2cccc(C(=N)N)c2)C(=O)N2CCN(S(C)(=O)=O)CC2)c(C)c2c1OC(C)(C)CC2 (stereo unspecified) is below 600 nM. Could you check? N

Hello, I'm reviewing records and need to know if Ki of CN(C)C(=O)N1CCN(C(=O)[C@@H](Cc2cccc(C(=N)N)c2)NS(=O)(=O)c2ccc3ccccc3c2)CC1 is below 600 nM. Could you check? Y

Hello, I'm reviewing records and need to know if Ki of Cc1c(C)c(S(=O)(=O)N[C@H](Cc2cccc(C(=N)N)c2)C(=O)N2CCN(S(C)(=O)=O)CC2)c(C)c2c1OC(C)(C)CC2 is below 600 nM. Could you check? Y

Hello, I'm reviewing records and need to know if Ki of CN1CCN(C(=O)[C@H](Cc2cccc(C(=N)N)c2)NS(=O)(=O)c2ccc3ccccc3c2)CC1 is below 600 nM. Could you check? N

Hello, I'm reviewing records and need to know if Ki of CS(=O)(=O)N1CCN(C(=O)C(Cc2cccc(C(=N)N)c2)NS(=O)(=O)c2ccc3ccccc3c2)CC1 (stereo unspecified) is below 600 nM. Could you check? Y

Hello, I'm reviewing records and need to know if Ki of CS(=O)(=O)N1CCN(C(=O)[C@H](Cc2cccc(C(=N)N)c2)NS(=O)(=O)c2ccc3ccccc3c2)CC1 is below 600 nM. Could you check? N

Hello, I'm reviewing records and need to know if Ki of CN(C)C(=O)N1CCN(C(=O)[C@H](Cc2cccc(C(=N)N)c2)NS(=O)(=O)c2ccc3ccccc3c2)CC1 is below 600 nM. Could you check? N

Hello, I'm reviewing records and need to know if Ki of CC(=O)N1CCN(C(=O)[C@@H](Cc2cccc(C(=N)N)c2)NS(=O)(=O)c2ccc3ccccc3c2)CC1 is below 600 nM. Could you check? Y
